Tested on: OVCAR-4 ovarian
protocol: NCI tumour cell line growth inhibition, 48 h
Each record here notes measured log10(TGI).
Response schema: value (number) is log10 of TGI in units of µM.

Some compounds with recorded log10(TGI):
INSERT INTO assay_data (compound, number) VALUES
  ('Cc1ccc2c3c(c(=O)[nH]c2c1)C1(C(C#N)=C(N)O3)c2cc(Br)ccc2-c2ccc(Br)cc21', 0.52),
  ('COc1ccc(-c2nnc(COc3ccc(NC(=O)Nc4ccc(Cl)c(C(F)(F)F)c4)cc3F)o2)cc1', 1.14),
  ('CCCCOC(=O)NC(=O)c1cn(C2CCCCC2)c(=O)[nH]c1=O', 1.69),
  ('COc1cc2c3c(n(C)c(=O)c2cc1OC)-c1cc2c(cc1/C3=C\CNCCCN)OCO2', 1.56);

Record `CCN(CC)CC(=O)O[C@]1(CC)C(=O)OCc2c1cc1n(c2=O)Cc2cc3ccccc3nc2-1` , field log10(TGI): -0.21

Please fill in: log10(TGI) reported for C=CC1(C)CCC2=C(CCC3C(C)(C(=O)OC)CCCC23C)C1=O (stereo not given) = 1.45

----------
TGI by entry:
Test system: IGROV1 ovarian
protocol: NCI tumour cell line growth inhibition, 48 h

Known results for compounds:
INSERT INTO results (compound, result) VALUES
  ('CN1C2CCC1CC(CCNC(c1ccccc1)c1ccccc1)C2 (stereo not given)', '> 100 µM'),
  ('Cc1cc(C)n(C2OC(CO)C(O)C(O)C2O)c(=S)c1C#N (stereo not given)', '> 100 µM'),
  ('Cc1ccc(NC(=O)NCCCOc2ccc(N3C(N)=NC(N)=NC3(C)C)cc2Cl)cc1S(=O)(=O)F', '> 100 µM');

The recorded TGI for entry `CC(=O)N[C@@H](Cc1ccc(O)cn1)C(=O)NCc1cccc(Cl)c1` equals > 100 µM

The value of TGI measured for the compound `N#Cc1nc(C2=C(Cl)c3ccccc3OC2)[nH]c1C#N` turned out to be > 100 µM

----------
List of TGI values.
System: CCRF-CEM leukemia
protocol: NCI tumour cell line growth inhibition, 48 h

A selection of reference data follows.
INSERT INTO results (compound, property_label, result) VALUES
  ('CCCCCCCCCCN(CCCCCCCCCC)C(=O)COc1c2cc(C(C)(C)C)cc1Cc1cc(C(C)(C)C)cc(c1OCC(=O)N(CCCCCCCCCC)CCCCCCCCCC)Cc1cc(C(C)(C)C)cc(c1OCC(=O)N(CCCCCCCCCC)CCCCCCCCCC)Cc1cc(C(C)(C)C)cc(c1OCC(=O)N(CCCCCCCCCC)CCCCCCCCCC)C2', 'TGI', '14.1 µM'),
  ('O=C1NC2OCC(O)C(O)C2O1 (stereo not drawn)', 'TGI', '> 100 µM');

The measured TGI associated with `COc1cc(NS(=O)(=O)c2ccc(-c3cnc(C4CC4)o3)cc2)ccc1F` reads > 100 µM

Input `Cc1ccc2c3c(c(=O)[nH]c2c1)C1(C(C#N)=C(N)O3)c2cc(Br)ccc2-c2ccc(Br)cc21` . Output TGI: 15 µM

// TGI value for `COc1ccc(O)c(/C(C)=N/NC(=S)N(C)C)c1` : > 100 µM

Looking up `CSc1nc2cc(S(=O)(=O)N3CCCCC3)ccc2s1` , I found its TGI recorded as > 100 µM

Recorded TGI (compound `CC(=NNC(=S)Nc1ccc(C)cc1)c1cccc(C(C)=NNC(=S)Nc2ccc(C)cc2)n1` ): > 100 µM

// `CC(C)(C)c1ccc(O)c(CN(Cc2cc(C(C)(C)C)ccc2O)c2ccccc2)c1` : TGI value = > 100 µM

----------
System: NCI/ADR-RES ovarian
protocol: NCI tumour cell line growth inhibition, 48 h
property.label: TGI

Worked examples, 2 compounds total:
INSERT INTO measurements (compound, property_label, result) VALUES
  ('COC1(OC)CC(CO)(CNc2nc(N)nc(Cl)c2/C=N\O)C1', 'TGI', '> 100 µM'),
  ('CC(C)=CC(=O)C[C@H]1C(=O)O[C@@H]2C[C@H]3C(C)=CC(=O)[C@@H](O)[C@]3(C)[C@H]3[C@@]4(O)OC[C@]32[C@@H]1[C@@H](C)[C@H]4O', 'TGI', '11 µM');

Tested on NCI/ADR-RES ovarian, the item `c1ccc2c(c1)nc1n2CNC1` showed TGI equal to > 100 µM

Lab entry: NCI/ADR-RES ovarian assay, compound `N#Cc1c(Cl)c2cc([N+](=O)[O-])ccc2n2c1nc1ccccc12` , TGI = 28 µM

Short answer on NCI/ADR-RES ovarian for `CCOP(=O)(CN1CCNCCNCC1)OCC` , TGI: > 100 µM

----------
Reported TGI by item:
Tested on: SF-295 CNS
protocol: NCI tumour cell line growth inhibition, 48 h

INSERT INTO results (molecule, result) VALUES
  ('Cc1[nH]c2ccccc2c1C1Cc2ccccc2N1C(=O)/C(Cl)=C/c1ccccc1 (centres undefined)', '> 100 µM');

The molecule listed as COC(=O)C12C3C4C1C1C2C3C41NC(=O)c1csc([C@@H](C[C@H](C(C)C)N(C)C(=O)[C@@H](NC(=O)[C@H]2CCCCN2C)C2CC2)OC(C)=O)n1 (some centres undefined) has a reported TGI of > 33.3 µM

Value of measured TGI for the entry `CC1(C)CC(=O)C(/C=N/c2nc(-c3ccccc3)cs2)=C(O)C1` : > 100 µM

For `CNC(=O)N1CN(c2ccccc2)C2(CCN(CCCC3(c4ccc(F)cc4)OCCO3)CC2)C1=O` the molecule record lists TGI as > 100 µM

----------
System: SR leukemia
protocol: NCI tumour cell line growth inhibition, 48 h; in the data active = GI50 below about 0.43 µM; inactive = the rest
Your response should consist of one outcome taken from active, inactive

// known answers, use as guide
INSERT INTO assay_data (compound, assigned_category) VALUES
  ('COc1ccc(-c2nnc(COc3ccc(NC(=O)Nc4ccc(Cl)c(C(F)(F)F)c4)cc3F)o2)cc1', 'inactive'),
  ('Cc1ccc(NC(=O)NCCCOc2ccc(N3C(N)=NC(N)=NC3(C)C)cc2Cl)cc1S(=O)(=O)F', 'inactive'),
  ('COc1cc(NS(=O)(=O)c2ccc(-c3cnc(C4CC4)o3)cc2)ccc1F', 'active'),
  ('CCC(=O)c1c(C(F)(F)F)n([O-])c2ccc(C)cc2[n+]1=O', 'inactive'),
  ('O=C1NN(C2=NNC3(C(=O)N2)c2ccccc2-c2ccccc23)C(c2ccccc2)=N/C1=C/c1ccc(O)cc1', 'inactive');

Query string: Test call for this compound, please: `CC[CH2][Sn]([Cl])([Cl])[CH2]CC.Oc1ccccc1C=NCCN=Cc1ccccc1O`
Result string: inactive

Query string: Can you look up the reported call for `C=C1C(=O)O[C@H]2[C@H]1CC/C(COC(=O)c1cc3ccccc3s1)=C\CC[C@@]1(C)O[C@@H]21` for me?
Result string: inactive

Query string: // return assay outcome for C=C(C)C1CCC2(C(=O)O)CCC3(C)C(CCC4C5(C)CCC(OC(=O)NCc6ccccc6)C(C)(C)C5CCC43C)C12 (centres undefined)
Result string: inactive

Query string: I'd appreciate the recorded outcome for `COc1ncc(-c2ccc3ncnc(Nc4cccc(Cl)c4)c3c2)cc1NS(=O)(=O)CCN1CCOCC1` from this test.
Result string: inactive

Query string: Recorded test call requested for `COc1ccccc1Cn1cc2c(c1-c1ccccc1)CCc1cnoc1-2`
Result string: inactive

----------
System: HCT-15 colon
protocol: NCI tumour cell line growth inhibition, 48 h; in the data active = GI50 below about 0.43 µM; inactive = the rest
Please answer using one outcome listed in active, inactive

INSERT INTO results (compound, assigned_category) VALUES
  ('Cc1ccc2[nH]c(C(=O)NN3C(=O)C(C)SC34CCCC(C)C4)c(-c3ccccc3)c2c1 (stereo not given)', 'inactive'),
  ('Cc1ccc(C(=O)Nc2ccc(CN3CCN(C)CC3)c(C(F)(F)F)c2)cc1C#Cc1cnc(N)c2ccccc12', 'active'),
  ('O=C(O)[C@@H]1CCCCN1Cc1cc2cc3c(cc2c2cc(OCc4ccccc4)ccc12)OCO3', 'inactive'),
  ('COc1ccc(OC)c(C(=O)c2oc3ccc(Br)cc3c2N)c1', 'active'),
  ('C/C=C1/C(=C/c2[nH]c(/C=c3\[nH]/c(=C/C4=NC(=O)C(CC)=C4C)c(C)c3CCC(=O)O)c(CCC(=O)O)c2C)NC(=O)C1C (stereo not given)', 'inactive'),
  ('CC1(C)N=C(N)N=C(N)N1c1ccc(OCc2ccc(S(=O)(=O)F)c(Cl)c2)c(Cl)c1', 'inactive');

Query string: Assay outcome for `O=C(/C(=C/c1cccc([N+](=O)[O-])c1)c1ccccc1)c1ccccc1` : what was it?
Result string: inactive

Query string: Outcome? `O=C(/C=C\n1cnc(-c2cc(C(F)(F)F)cc(C(F)(F)F)c2)n1)NNc1cnccn1`
Result string: active

Query string: Per the records of this test, what outcome belongs to `C=C1C(=O)O[C@H]2[C@H]1CC/C(COC(=O)c1cc3ccccc3s1)=C\CC[C@@]1(C)O[C@@H]21` ?
Result string: active

Query string: # fetch the recorded call for CCN(CC)CCCC(C)Nc1cnc(C(=O)Nc2cccc3ccc(OC)nc23)cn1 (stereo not given) here
Result string: inactive
